# Tested on: RIVA
# ASSAY PROCEDURE: growth inhibition by drug plus 177Lu-lilotomab satetraxetan (1 - RLU/untreated control) (fraction); higher = stronger inhibition
# STUDY CONDITIONS: 100 nM; time (day): 3; 177Lu-lilotomab satetraxetan 0.5 ug/ml
Use YES when the recorded growth inhibition by drug plus 177Lu-lilotomab satetraxetan is no lower than 0.4; use NO when it is lower.

- COMPOUND STRUCTURE: "CCOC(=O)C1=C[C@]2(CC)CCCN3CCc4c(n1c1ccccc41)[C@@H]32"
  ANSWER LABEL: "NO"
- COMPOUND STRUCTURE: "CN(C)c1nc(N(C)C)nc(N(C)C)n1"
  ANSWER LABEL: "NO"
- COMPOUND STRUCTURE: "Cc1c(C(=O)Nc2ccc(N3C[C@@H](C)O[C@@H](C)C3)nc2)cccc1-c1ccc(OC(F)(F)F)cc1"
  ANSWER LABEL: "NO"
- COMPOUND STRUCTURE: "COc1cccc2c1C(=O)c1c(O)c3c(c(O)c1C2=O)C[C@@](O)(C(=O)CO)C[C@@H]3O[C@H]1C[C@H](N)[C@H](O)[C@H](C)O1"
  ANSWER LABEL: "YES"

Enquiry: Does growth inhibition by drug plus 177Lu-lilotomab satetraxetan meet or surpass 0.4 for CO[C@H]1C[C@@H]2CC[C@@H](C)[C@@](O)(O2)C(=O)C(=O)N2CCCC[C@H]2C(=O)O[C@H]([C@H](C)C[C@@H]2CC[C@@H](OC(=O)C(C)(CO)CO)[C@H](OC)C2)CC(=O)[C@H](C)/C=C(\C)[C@@H](O)[C@@H](OC)C(=O)[C@H](C)C[C@H](C)/C=C/C=C/C=C/1C ?
Return: YES

====

# growth inhibition by drug plus 177Lu-lilotomab satetraxetan values compiled below
# Test system: U-2932
# ASSAY PROCEDURE: growth inhibition by drug plus 177Lu-lilotomab satetraxetan (1 - RLU/untreated control) (fraction); higher = stronger inhibition
# STUDY CONDITIONS: 1000 nM; time (day): 6; 177Lu-lilotomab satetraxetan 1 ug/ml
# output: bare number, no unit

- COMPOUND STRUCTURE: "CC[C@]1(O)C[C@H]2CN(CCc3c([nH]c4ccccc34)[C@@](C(=O)OC)(c3cc4c(cc3OC)N(C=O)[C@H]3[C@@](O)(C(=O)OC)[C@H](OC(C)=O)[C@]5(CC)C=CCN6CC[C@]43[C@@H]65)C2)C1"
  REPORTED VALUE: 0.988
- COMPOUND STRUCTURE: "CCC1=C[C@@H]2CN(C1)Cc1c([nH]c3ccccc13)[C@@](C(=O)OC)(c1cc3c(cc1OC)N(C)[C@H]1[C@@](O)(C(=O)OC)[C@H](OC(C)=O)[C@]4(CC)C=CCN5CC[C@]31[C@@H]54)C2"
  REPORTED VALUE: 0.988
- COMPOUND STRUCTURE: "CCC[C@H](NC(=O)/C(C#N)=C/c1cccc(Br)n1)c1ccccc1"
  REPORTED VALUE: 0.183

Enquiry: I'd like to know its growth inhibition by drug plus 177Lu-lilotomab satetraxetan. The compound in question is C=CC(=O)Nc1cccc(Oc2nc(Nc3ccc(N4CCN(C)CC4)cc3OC)ncc2Cl)c1
Return: 0.216

====

# growth inhibition by drug alone values compiled below
# Test system: RIVA
# ASSAY PROCEDURE: growth inhibition by drug alone (1 - RLU/untreated control) (fraction); higher = stronger inhibition
# STUDY CONDITIONS: 10 nM; time (day): 3; 177Lu-lilotomab satetraxetan 0 ug/ml
# output: bare number, no unit

In the examples that follow, each entry is paired with its recorded growth inhibition by drug alone.
- COMPOUND: "N#CC1(c2ccc(NC(=O)c3cccnc3NCc3ccncc3)cc2)CCCC1"
  growth inhibition by drug alone: -0.0437
- COMPOUND: "Nc1nccc(Oc2ccc(NC(=O)c3c[nH]cc(-c4ccc(F)cc4)c3=O)cc2F)c1Cl"
  growth inhibition by drug alone: -0.189

Enquiry: Item CCN(CC)CCNC(=O)c1c(C)[nH]c(/C=C2\C(=O)Nc3ccc(F)cc32)c1C [Sunitinib Malate (Sutent)] with RIVA - growth inhibition by drug alone?
Return: -0.117

Enquiry: Okay, and COC(=O)c1ccc2c(C(=Nc3ccc(N(C)C(=O)CN4CCN(C)CC4)cc3)c3ccccc3)c(O)[nH]c2c1 ?
Return: -0.119

====

# Test system: U-2932
# ASSAY PROCEDURE: growth inhibition by drug alone (1 - RLU/untreated control) (fraction); higher = stronger inhibition
# STUDY CONDITIONS: 10 nM; time (day): 5; 177Lu-lilotomab satetraxetan 0 ug/ml
# growth inhibition by drug alone values compiled below
# output: bare number, no unit

- MOLECULE: "O=C(CCCCCCC(=O)Nc1cccnc1)NO [Pyroxamide]"
  growth inhibition by drug alone: -0.129
- MOLECULE: "CCN1CCN(Cc2ccc(-c3cc4c(N[C@H](C)c5ccccc5)ncnc4[nH]3)cc2)CC1"
  growth inhibition by drug alone: 0.023
- MOLECULE: "CCCS(=O)(=O)Nc1ccc(F)c(C(=O)c2c[nH]c3ncc(-c4ccc(Cl)cc4)cc23)c1F"
  growth inhibition by drug alone: -0.0629
- MOLECULE: "CC(=O)Nc1nc(C)c(-c2ccc(Cl)c(S(=O)(=O)NCCO)c2)s1"
  growth inhibition by drug alone: 0.00221
- MOLECULE: "N#CCNC(=O)c1ccc(-c2ccnc(Nc3ccc(N4CCOCC4)cc3)n2)cc1"
  growth inhibition by drug alone: -0.0373
- MOLECULE: "COc1c(C)c2c(c(O)c1C/C=C(\\C)CCC(=O)O)C(=O)OC2 [Mycophenolic (Mycophenolate)]"
  growth inhibition by drug alone: 0.104

Enquiry: Item CC(NC(=O)c1ccccc1/N=C/c1c(O)ccc2ccccc12)c1ccccc1 (centres undefined) with U-2932 - growth inhibition by drug alone?
Return: 0.0103

Enquiry: Okay, and CN(C)c1nc(N(C)C)nc(N(C)C)n1 ?
Return: -0.0583

Enquiry: Okay, and Cc1cc(O)c2c(c1)C(=O)c1cccc(O)c1C2=O ?
Return: -0.0488

====

# growth inhibition by drug plus 177Lu-lilotomab satetraxetan values compiled below
# System: U-2932
# ASSAY PROCEDURE: growth inhibition by drug plus 177Lu-lilotomab satetraxetan (1 - RLU/untreated control) (fraction); higher = stronger inhibition
# STUDY CONDITIONS: 10 nM; time (day): 3; 177Lu-lilotomab satetraxetan 1 ug/ml
# output: bare number, no unit

In the examples that follow, each entry is paired with its recorded growth inhibition by drug plus 177Lu-lilotomab satetraxetan.
- COMPOUND: "O=C1CN2Cc3c(ccc(Cl)c3Cl)N=C2N1 [Anagrelide]"
  REPORTED VALUE: 0.101
- COMPOUND: "COc1cc2ncnc(Nc3ccc(F)c(Cl)c3)c2cc1OCCCN1CCOCC1 [Gefitinib (Iressa)]"
  REPORTED VALUE: -0.0292
- COMPOUND: "CN(c1ncccc1CNc1nc(Nc2ccc3c(c2)CC(=O)N3)ncc1C(F)(F)F)S(C)(=O)=O"
  REPORTED VALUE: 0.066

Enquiry: I'd like to know its growth inhibition by drug plus 177Lu-lilotomab satetraxetan. The compound in question is CC[C@H](CO)Nc1nc(NCc2ccccc2)c2ncn(C(C)C)c2n1 [Roscovitine (Seliciclib, CYC202)]
Return: 0.0443

Enquiry: Okay, and COC(=O)Nc1nc2cc(C(=O)c3cccs3)ccc2[nH]1 [Nocodazole] ?
Return: 0.00977

Enquiry: Okay, and Cc1nnc(C(C)C)n1C1C[C@H]2CC[C@@H](C1)N2CC[C@H](NC(=O)C1CCC(F)(F)CC1)c1ccccc1 (stereo in doubt) [Maraviroc] ?
Return: 0.128

Enquiry: Okay, and c1ccc2c(-c3cnn4cc(-c5ccc(N6CCNCC6)cc5)cnc34)ccnc2c1 ?
Return: -0.113

====

# Test system: RIVA
# ASSAY PROCEDURE: growth inhibition by drug plus 177Lu-lilotomab satetraxetan (1 - RLU/untreated control) (fraction); higher = stronger inhibition
# STUDY CONDITIONS: 100 nM; time (day): 3; 177Lu-lilotomab satetraxetan 0.5 ug/ml
Structures can show the parent of a compound that is named as a salt.
Use 1 when the recorded growth inhibition by drug plus 177Lu-lilotomab satetraxetan is no lower than 0.6; use -1 when it is lower.

Field: example entries. Status: answers known.
- COMPOUND: "Cc1nc(N)sc1-c1ccnc(Nc2ccc(N3CCOCC3)cc2)n1"
  ANSWER LABEL: -1
- COMPOUND: "FC(F)c1nc2ccccc2n1-c1nc(N2CCOCC2)nc(N2CCOCC2)n1"
  ANSWER LABEL: 1
- COMPOUND: "CC(C)c1ccc(Cn2ccc3c4c(N)nc(NC5CC5)nc4ccc32)cc1"
  ANSWER LABEL: 1

Enquiry: Does growth inhibition by drug plus 177Lu-lilotomab satetraxetan meet or surpass 0.6 for C=CC(=O)Nc1cccc(Oc2nc(Nc3ccc(N4CCN(C)CC4)cc3OC)ncc2Cl)c1 ?
Return: -1

Enquiry: Okay, and CC/C(=C(\c1ccccc1)c1ccc(OCCN(C)C)cc1)c1ccccc1 [Tamoxifen Citrate (Nolvadex)] ?
Return: 1

Enquiry: Okay, and Cn1c(=O)c(F)c(Nc2ccc(I)cc2F)c2c(=O)n(C[C@@H](O)CO)cnc21 ?
Return: -1

Enquiry: Okay, and CCOc1cc2ncc(C#N)c(Nc3ccc(OCc4ccccn4)c(Cl)c3)c2cc1NC(=O)/C=C/CN(C)C ?
Return: -1

Enquiry: Okay, and CCc1cncnc1N1CCN(Cc2nc3ccc(C(F)(F)F)cc3[nH]2)CC1 ?
Return: -1
